Reported inhibition at 500 µg/mL is given for each of the following molecules.
System: B16 melanoma cells
Test: Sensitivity of B16 melanoma cells, in vitro cell growth inhibition (Coulter Counter cell count)
Type: cell-based
Conditions: Mus musculus, dosage of 500 /ug/ml, aqueous suspension, incubation 20 hours at 37°C, cells counted 48 hours after beginning of incubation, inhibition of cell growth with respect to control

molecule: O=C(NC(=O)c1c(Cl)cccc1Cl)Nc1cccc(OC(=O)Nc2ccccc2)c1 [Compound 33]
inhibition at 500 µg/mL: 80 to 100%
//
molecule: CC(=O)Oc1cccc(Cl)c1C(=O)NC(=O)Nc1ccc(OC(F)(F)C(F)F)cc1 [Compound 14]
inhibition at 500 µg/mL: 80 to 100%
//
molecule: CC(=O)Oc1cc(NC(=O)NC(=O)c2c(Cl)cccc2OC(C)=O)ccc1Cl [Compound 39]
inhibition at 500 µg/mL: 80 to 100%
//
molecule: O=C(NC(=O)c1c(Cl)cc(O)cc1Cl)Nc1ccc(Cl)c(Cl)c1 [Compound 21]
inhibition at 500 µg/mL: 60 to 80%
//
molecule: O=C(NC(=O)c1c(F)cccc1F)Nc1cc(Cl)c(C(=O)c2ccc(Cl)cc2)c(Cl)c1 [Compound 55]
inhibition at 500 µg/mL: 40 to 60%
//
molecule: CSc1cccc(Cl)c1C(=S)NC(=S)Nc1ccc(Cl)cc1 [Compound 52]
inhibition at 500 µg/mL: 80 to 100%
//
molecule: CC(=O)Oc1cccc(Cl)c1C(=O)NC(=O)Nc1ccc([N+](=O)[O-])cc1O [Compound 42]
inhibition at 500 µg/mL: 80 to 100%
//
molecule: CNC(=O)Oc1ccccc1NC(=O)NC(=O)c1c(Cl)cccc1Cl [Compound 32]
inhibition at 500 µg/mL: 60 to 80%
//
molecule: Cc1ccccc1C(=O)NC(=O)Nc1ccc(O)cc1 [Compound 36]
inhibition at 500 µg/mL: 60 to 80%
//
molecule: O=C(NC(=O)c1c(F)cccc1F)Nc1ccc(O)c(C(F)(F)F)c1 [Compound 26]
inhibition at 500 µg/mL: 80 to 100%
//
molecule: CC(=O)Oc1cccc(Cl)c1C(=O)NC(=O)Nc1ccc(C(=O)N2CCCCC2)cc1 [Compound 16]
inhibition at 500 µg/mL: 80 to 100%
//
molecule: O=C(NC(=O)c1cc(I)cc(I)c1O)Nc1ccc(Cl)cc1 [Compound 12]
inhibition at 500 µg/mL: 80 to 100%
//
molecule: CC(=O)Oc1ccc(Cl)c(C(=O)NC(=O)Nc2ccc(Cl)cc2)c1Cl [Compound 2]
inhibition at 500 µg/mL: 60 to 80%
//
molecule: CC(=O)Oc1cccc(Cl)c1C(=O)NC(=O)Nc1cc(Br)cc(Br)c1O [Compound 45]
inhibition at 500 µg/mL: 80 to 100%
//
molecule: O=C(NC(=O)c1c(O)cccc1Cl)Nc1ccc(Cl)c(O)c1 [Compound 38]
inhibition at 500 µg/mL: 60 to 80%
//
molecule: CCOC(=O)COc1ccc(NC(=O)NC(=O)c2c(F)cccc2F)cc1C(F)(F)F [Compound 35]
inhibition at 500 µg/mL: 60 to 80%
//
molecule: CCCCOC(=O)c1ccc(NC(=O)NC(=O)c2c(Cl)cccc2OC(C)=O)cc1O [Compound 44]
inhibition at 500 µg/mL: 60 to 80%
//
molecule: CC(=O)Oc1cc(C(F)(F)F)ccc1NC(=O)NC(=O)c1ccccc1Cl [Compound 29]
inhibition at 500 µg/mL: 40 to 60%
//
molecule: O=C(NC(=O)c1c(Cl)ccc(O)c1Cl)Nc1ccc(Cl)cc1 [Compound 1]
inhibition at 500 µg/mL: 80 to 100%
//
molecule: O=C(NC(=O)c1ccccc1O)Nc1ccc([N+](=O)[O-])cc1Cl [Compound 10]
inhibition at 500 µg/mL: 60 to 80%
//
molecule: CC(=O)Oc1ccccc1NC(=S)NC(=O)c1ccccc1 [Compound 51]
inhibition at 500 µg/mL: 60 to 80%
//
molecule: O=C(NC(=O)c1c(Cl)ccc(O)c1Cl)Nc1ccc(C(F)(F)F)cc1 [Compound 4]
inhibition at 500 µg/mL: 80 to 100%
//
molecule: CC(=O)Oc1ccc(C(=O)NC(=O)Nc2ccc(O)cc2)cc1Cl [Compound 48]
inhibition at 500 µg/mL: 60 to 80%
//
molecule: CCC(=O)Oc1cccc(Cl)c1C(=O)NC(=O)Nc1ccc(Cl)cc1 [Compound 8]
inhibition at 500 µg/mL: 60 to 80%
//
molecule: O=C(NC(=O)c1c(Cl)ccc(OCc2ccccc2)c1Cl)Nc1ccc(Cl)cc1 [Compound 3]
inhibition at 500 µg/mL: 40 to 60%
//
molecule: CC(=O)Oc1ccc(C(=O)NC(=O)Nc2ccc(O)c(C(F)(F)F)c2)cc1Cl [Compound 56]
inhibition at 500 µg/mL: 40 to 60%
//
molecule: O=C(NC(=O)c1cc([N+](=O)[O-])ccc1O)Nc1ccc(Cl)cc1 [Compound 9]
inhibition at 500 µg/mL: 60 to 80%
//
molecule: O=C(NC(=O)c1c(F)cccc1F)Nc1ccc(OC(=O)Oc2ccc(Cl)cc2)cc1 [Compound 57]
inhibition at 500 µg/mL: 20 to 40%
//
molecule: CC(=O)Oc1ccccc1C(=O)NC(=O)Nc1cc(Cl)c(O)c(Cl)c1 [Compound 49]
inhibition at 500 µg/mL: 80 to 100%
//
molecule: CC(=O)Oc1cc(C(F)(F)F)ccc1NC(=O)NC(=O)c1c(F)cccc1F [Compound 25]
inhibition at 500 µg/mL: 80 to 100%
//
molecule: CC(C)(C)c1cc(NC(=O)NC(=O)c2ccccc2Cl)cc(C(C)(C)C)c1O [Compound 37]
inhibition at 500 µg/mL: 80 to 100%
//
molecule: O=C(NC(=O)c1cc(Cl)ccc1O)Nc1ccc([N+](=O)[O-])cc1Cl [Compound 20]
inhibition at 500 µg/mL: 40 to 60%
//
molecule: O=C(NC(=O)c1ccccc1Cl)Nc1ccc(OC(=O)Cc2ccc(Cl)cc2)c(Cl)c1 [Compound 34]
inhibition at 500 µg/mL: 40 to 60%
//
molecule: CC(=O)Oc1ccc(NC(=O)NC(=O)c2cc(C(C)(C)C)c(O)c(C(C)(C)C)c2)cc1 [Compound 47]
inhibition at 500 µg/mL: 60 to 80%
//
molecule: O=C(NC(=O)c1cc(Cl)c(O)c(Cl)c1)Nc1ccc(Cl)cc1 [Compound 18]
inhibition at 500 µg/mL: 60 to 80%
